Data provenance is patent US20170152311A1.

# Subject of test: T1, recombinant human M-CSF (human, UniProt P09603 33-190, limits assumed)
# T1 construct: The active form is described as a disulfide bonded dimer; also called M-SCF; CSF-1
# T1 sequence: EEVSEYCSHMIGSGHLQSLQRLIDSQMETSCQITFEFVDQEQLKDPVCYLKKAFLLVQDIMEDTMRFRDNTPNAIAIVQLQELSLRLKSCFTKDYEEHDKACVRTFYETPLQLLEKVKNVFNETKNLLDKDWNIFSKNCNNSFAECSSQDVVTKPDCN
# Assay: SPR (Biacore), M-CSF amine-coupled on CM5 chip, antibody flowed, 25 C, 1:1 model
I'd appreciate it if you could supply koff values for the items below.
Answers are plain numbers, in s⁻¹.

Take a look at these entries with their results.
heRX1-8.G2 (antibody, V domains shown, copies: 2 + 2) VH: QVQLQESGPGLVKPSQTLSLTCTVSDYSITSDYAWNWIRQFPGKGLEWMGYISYSGSTSYNPSLKSRITISRDTSKNQFSLQLNSVTAADTAVYYCASFDYAHAMDYWGQGTTVTVSS VL: EIVLTQSPGTLSVSPGERVTFSCRASQSIGTSIHWYQQKTGQAPRLLIKYASESISGIPDRFSGSGSGTDFTLTISRVESEDFADYYCQQINSWPTTFGQGTKLEIK : 0.00148
heRX1-3.G2 (antibody, V domains shown, not shown: human Gamma-2 heavy chain constant region; human Kappa light chain constant region (the printed V regions end in EIKRT, which may overlap its start)) VH: DVQLQESGPGLVKPSQTLSLTCTVTDYSITSDYAWNWIRQFPGKKLEWMGYISYSGSTSYNPSLKSRITISRDTSKNQFSLQLNSVTAADTATYYCASFDYAHAMDYWGQGTTVTVSS VL: EIVLTQSPGTLSVSPGERVTFSCRASQSIGTSIHWYQQKTGQAPRLLIKYASERATGIPDRFSGSGSGTDFTLTISRVESEDFADYYCQQINSWPTTFGQGTKLEIKR : 0.00118

Kindly review the next binder as well.
Return reported koff; argument: heRX1-4.G2 (antibody, V domains shown, not shown: human Gamma-2 heavy chain constant region; human Kappa light chain constant region (the printed V regions end in EIKRT, which may overlap its start)) VH: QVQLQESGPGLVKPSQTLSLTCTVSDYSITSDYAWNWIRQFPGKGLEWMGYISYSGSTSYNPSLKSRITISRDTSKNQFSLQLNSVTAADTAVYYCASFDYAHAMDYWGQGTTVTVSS VL: EIVLTQSPGTLSVSPGERVTFSCRASQSIGTSIHWYQQKTGQAPRLLIKYASERATGIPDRFSGSGSGTDFTLTISRVESEDFADYYCQQINSWPTTFGQGTKLEIKR
0.00108
